- Tested on: E2F
- test context: random region only
readout name: pKd
Scale explanation: pKd corresponds to minus log10 of a concentration expressed in moles per litre.

primary_sequence="CGUCACUCCGUCCCAGCCGACGAAGUCCGUAAUUCCUCCA [E2F aptamer 216]" readout_name=pKd measured_value=7.35
primary_sequence="AAUGGAAUCACUGAAGGCCCUCCGUAGCACCUAACACAGU [E2F aptamer 221]" readout_name=pKd measured_value=8.82
primary_sequence="ACCUCGACCCUUCACCUGACUCUCCCAGAAGUUCUGUUUC [E2F aptamer 219]" readout_name=pKd measured_value=8.70
primary_sequence="CGAACGAACUGUGGACCCUACCCACACUGGGCCAAGCGAU [E2F aptamer 207]" readout_name=pKd measured_value=9.40

API: the following record is the query input.
Tell me the measured pKd of CAAGCGCUGAAACCAAUGCACCCCACCCCACACUGGUGUAC [E2F aptamer 204] , please.
8.90

###

- Test system: E2F
- test context: printed sequence appears to lack U residues (compare SEQ 225)
readout name: Kd (nM)
The response must be a number in nM with no trailing unit.

Tell me the measured Kd of GGGAGAGAGGAAGAGGGAGGGCAAACCACAGACCCAACGCAGGAGCACCCACCCACACGGGACAGCAAACCCAGAGGCGAAGACGGACCCCCC [E2F 10-5] , please.
2.5

###

- Tested on: E2F
- test context: random region only
readout name: log10(Kd) (log10 of the value in nM)
Log10 applied to Kd; unit prior to transform: nM.

primary_sequence="UUAUAUAGCACACUGAAGCCCUCAGCAAAACCUCCACAGG [E2F aptamer 223]" readout_name=log10(Kd) measured_value=0.18
primary_sequence="GCACUAAACUUCGAUUACCCCCCACCCACACUGGCUGCAC [E2F aptamer 200]" readout_name=log10(Kd) measured_value=0.60
primary_sequence="GCCGAGAGUGAGUGACCACAACCCCGCCCACACUGGAAUA [E2F aptamer 214]" readout_name=log10(Kd) measured_value=0.18
primary_sequence="UUUCCUAUGGCGAUAACUUCAGCCACGCCGGCGCCCCGUG [E2F aptamer 215]" readout_name=log10(Kd) measured_value=1.48
primary_sequence="UAUGAAAUCACAGAAGCCCGCGUUCGACACCUCCACUGUU [E2F aptamer 224]" readout_name=log10(Kd) measured_value=0.48
primary_sequence="CAGAUUACCCUACCCACACUGCGUGCGGACAACCAUUGGC [E2F aptamer 201]" readout_name=log10(Kd) measured_value=-0.40
primary_sequence="CAAGCGUAUACCCUACCCACACUGAGCUACAUUGCGCUGA [E2F aptamer 213]" readout_name=log10(Kd) measured_value=0.90
primary_sequence="GCAUCCUGCCAGCGGCGACGGACCUUCGCCCACAGGCCUC [E2F aptamer 222]" readout_name=log10(Kd) measured_value=0.30

Tell me the measured log10(Kd) of CCACCCGAAGCAAAUCAAGCCCGACGGCGCUCGGACCAAC [E2F aptamer 217] , please.
1.18

###

- System: E2F
- test context: printed sequence appears to lack U residues (compare SEQ 221)
readout name: Kd (nM)
The response must be a number in nM with no trailing unit.

Tell me the measured Kd of GGGAGAGAGGAAGAGGGAGGGAAGGAACACGAAGGCCCCCGAGCACCAACACAGCAAACCCAGAGGCGAAGACGGACCCCCC [E2F 10-1 / 10-8] , please.
1.5

###

- System: E2F
- test context: random region only; listing prints T for U
readout name: pKd
Scale explanation: pKd corresponds to minus log10 of a concentration expressed in moles per litre.

Tell me the measured pKd of GCUGCCGCGCCUGGACCCCACCCACAUAUGGGCCACACAC [E2F aptamer 189] , please.
8.82

###

- Tested on: E2F
- test context: printed sequence appears to lack U residues (compare SEQ 226)
readout name: Kd

Tell me the measured Kd of GGGAGAGAGGAAGAGGGAGGGACCCCGCCGAAGCCGCCGAGGACACCACACCCGCCAAACCCAGAGGCGAAGACGGACCCCCC [E2F 10-6] , please.
2 nM

###

- Tested on: E2F
- test context: printed sequence appears to lack U residues (compare SEQ 224)
readout name: pKd
Scale explanation: pKd corresponds to minus log10 of a concentration expressed in moles per litre.

Tell me the measured pKd of GGGAGAGAGGAAGAGGGAGGGAGAAACACAGAAGCCCGCGCGACACCCCACGCAAACCCAGAGGCGAAGACGGACCCCCC [E2F 10-4] , please.
8.30

###

- System: E2F
- test context: listed as assignment inferred
readout name: pKd
Scale explanation: pKd corresponds to minus log10 of a concentration expressed in moles per litre.

Recorded pKd for CACUGAACGAAUGGCAACCGCCAAACCCUACCCACACUGG [E2F aptamer 212] with E2F, please?
9.70
